# protocol: Cytotoxicity against human IGROV-ET cells after 48 hrs by SRB assay
# Assay type: functional
# measurement.conditions: read-out: LC50 (the source's name)
property.label: CC50 (nM)
One number for each entry, in nM.

Past entries and their recorded results:
{"smiles.entry": "C/C=C1\\NC(=O)[C@H](Cc2ccccc2)NC(=O)[C@@H](C(C)C)NC(=O)[C@@H]([C@H](C)CC)NC(=O)[C@H](NC(=O)[C@H](NC(=O)[C@H](CCCN)NC(=O)[C@H]2CCCN2C(=O)[C@H](NC(=O)[C@@H](NC(=O)[C@@H](NC(=O)[C@H](NC(=O)CC[C@H](C)CC)C(C)C)[C@@H](C)O)C(C)C)C(C)C)[C@H](C)CC)[C@H](C)OC(=O)[C@H](C(C)C)NC1=O", "property.label": "CC50", "result.value": 614}
{"smiles.entry": "C/C=C1\\NC(=O)[C@H](Cc2ccccc2)N(C)C(=O)[C@@H](C(C)C)NC(=O)[C@@H]([C@H](C)CC)NC(=O)[C@H](NC(=O)[C@H](NC(=O)[C@H](CCCN)NC(=O)[C@H]2CCCN2C(=O)[C@H](NC(=O)[C@@H](NC(=O)[C@@H](NC(=O)[C@H](NC(=O)CC[C@@H](C)CC)C(C)C)[C@@H](C)O)C(C)C)C(C)C)[C@H](C)CC)[C@H](C)OC(=O)[C@H](C(C)C)NC1=O", "property.label": "CC50", "result.value": 451}
{"smiles.entry": "C/C=C1\\NC(=O)[C@H](Cc2ccccc2)NC(=O)[C@@H](C(C)C)NC(=O)[C@@H]([C@H](C)CC)NC(=O)[C@H](NC(=O)[C@H](NC(=O)[C@H](CCCN)NC(=O)[C@H]2CCCN2C(=O)[C@H](NC(=O)[C@@H](NC(=O)[C@@H](NC(=O)[C@H](NC(=O)CCCCC(C)(F)F)C(C)C)[C@@H](C)O)C(C)C)C(C)C)[C@H](C)CC)[C@H](C)OC(=O)[C@H](C(C)C)NC1=O", "property.label": "CC50", "result.value": 571}
{"smiles.entry": "C/C=C1\\NC(=O)[C@H](Cc2ccccc2)NC(=O)[C@@H](C(C)C)NC(=O)[C@@H]([C@H](C)CC)NC(=O)[C@H](NC(=O)[C@H](NC(=O)[C@H](CCCNC(=O)C(F)(F)F)NC(=O)[C@H]2CCCN2C(=O)[C@H](NC(=O)[C@@H](NC(=O)[C@@H](NC(=O)[C@H](NC(=O)CC[C@@H](C)CC)C(C)C)[C@@H](C)OC(=O)C(F)(F)F)C(C)C)C(C)C)[C@H](C)CC)[C@H](C)OC(=O)[C@H](C(C)C)NC1=O", "property.label": "CC50", "result.value": 2480}

Turning now to a further molecule:
Which CC50 reading was recorded for the molecule `C/C=C1\NC(=O)[C@H](Cc2ccc(F)cc2)NC(=O)[C@@H](C(C)C)NC(=O)[C@@H]([C@H](C)CC)NC(=O)[C@H](NC(=O)[C@H](NC(=O)[C@H](CCCN)NC(=O)[C@H]2CCCN2C(=O)[C@H](NC(=O)[C@@H](NC(=O)[C@@H](NC(=O)[C@H](NC(=O)CC[C@@H](C)CC)C(C)C)[C@@H](C)O)C(C)C)C(C)C)[C@H](C)CC)[C@H](C)OC(=O)[C@H](C(C)C)NC1=O` ? 649

###

# Test system: DU-145
# protocol: Cytotoxicity against human DU145 cells after 48 hrs by SRB assay
# Type: functional, cell-based
# measurement.conditions: Homo sapiens, DU-145, 48 h
Exercise: for every item that follows, state its recorded TGI.
One number for each entry, in nM.

Past entries and their recorded results:
{"smiles.entry": "C/C=C1\\NC(=O)[C@H](Cc2ccccc2)NC(=O)[C@@H](C(C)C)NC(=O)[C@@H]([C@H](C)CC)NC(=O)[C@H](NC(=O)[C@H](NC(=O)[C@H](CCCCN)NC(=O)[C@H]2CCCN2C(=O)[C@H](NC(=O)[C@@H](NC(=O)[C@@H](NC(=O)[C@H](NC(=O)CCCC(C)C)C(C)C)[C@@H](C)O)C(C)C)C(C)C)[C@H](C)CC)[C@H](C)OC(=O)[C@H](C(C)C)NC1=O", "target.under.test": "DU-145", "TGI, nM": 2440}
{"smiles.entry": "C/C=C1\\NC(=O)[C@H](Cc2ccccc2)N(C)C(=O)[C@@H](C(C)C)NC(=O)[C@@H]([C@H](C)CC)NC(=O)[C@H](NC(=O)[C@H](NC(=O)[C@H](CCCN)NC(=O)[C@H]2CCCN2C(=O)[C@H](NC(=O)[C@@H](NC(=O)[C@@H](NC(=O)[C@H](NC(=O)CC[C@@H](C)CC)C(C)C)[C@@H](C)O)C(C)C)C(C)C)[C@H](C)CC)[C@H](C)OC(=O)[C@H](C(C)C)NC1=O", "target.under.test": "DU-145", "TGI, nM": 1130}

Turning now to a further compound:
Which TGI reading was recorded for the compound `C/C=C1\NC(=O)[C@H](Cc2ccccc2)NC(=O)[C@@H](C(C)C)NC(=O)[C@@H]([C@H](C)CC)NC(=O)[C@H](NC(=O)[C@H](NC(=O)[C@H](CCCN)NC(=O)[C@H]2CCCN2C(=O)[C@H](NC(=O)[C@@H](NC(=O)[C@@H](NC(=O)[C@H](NC(=O)CCCCC(C)(F)F)C(C)C)[C@@H](C)O)C(C)C)C(C)C)[C@H](C)CC)[C@H](C)OC(=O)[C@H](C(C)C)NC1=O` ? 3920

###

Exercise: for every item that follows, state its recorded GI50.
# System: LoVo
# protocol: Cytotoxicity against human doxorubicin resistant LoVo cells after 48 hrs by SRB assay
# Format: functional
Answers are plain numbers, in nM.

Past entries and their recorded results:
{"smiles.entry": "C/C=C1\\NC(=O)[C@H](Cc2ccccc2)NC(=O)[C@@H](C(C)C)NC(=O)[C@@H]([C@H](C)CC)NC(=O)[C@H](NC(=O)[C@H](NC(=O)[C@H](CCCN)NC(=O)[C@H]2CCCN2C(=O)[C@H](NC(=O)[C@H](CCCN)NC(=O)[C@@H](NC(=O)[C@H](NC(=O)CCCC(C)C)C(C)C)[C@@H](C)O)C(C)C)[C@H](C)CC)[C@H](C)OC(=O)[C@H](C(C)C)NC1=O", "property.label": "GI50", "unit": "nM", "result.value": 7590}
{"smiles.entry": "C/C=C1\\NC(=O)[C@H](Cc2ccccc2)NC(=O)[C@@H](C(C)C)NC(=O)[C@@H]([C@H](C)CC)NC(=O)[C@H](NC(=O)[C@H](NC(=O)[C@H](CCCNC(=O)CCOCCOCCNC(=O)OCC2c3ccccc3-c3ccccc32)NC(=O)[C@H]2CCCN2C(=O)[C@H](NC(=O)[C@@H](NC(=O)[C@@H](NC(=O)[C@H](NC(=O)CCCC(C)C)C(C)C)[C@@H](C)O)C(C)C)C(C)C)[C@H](C)CC)[C@H](C)OC(=O)[C@H](C(C)C)NC1=O", "property.label": "GI50", "unit": "nM", "result.value": 199}

Turning now to a further compound:
Which GI50 reading was recorded for the compound `C/C=C1\NC(=O)[C@H](Cc2ccccc2)NC(=O)[C@@H](C(C)C)NC(=O)[C@@H]([C@H](C)CC)NC(=O)[C@H](NC(=O)[C@H](NC(=O)[C@H](CCCN)NC(=O)[C@H]2CCCN2C(=O)[C@H](NC(=O)[C@@H](NC(=O)CNC(=O)[C@H](NC(=O)CCCC(C)C)C(C)C)C(C)C)C(C)C)[C@H](C)CC)[C@H](C)OC(=O)[C@H](C(C)C)NC1=O` ? 2390

###

# Tested on: DU-145
# protocol: Cytotoxicity against human DU145 cells after 48 hrs by SRB assay
# Assay type: functional, cell-based
# measurement.conditions: Homo sapiens, DU-145, 48 h; read-out: GI50
property.label: GI50 (nM)
One number for each entry, in nM.

{"smiles.entry": "C/C=C1\\NC(=O)[C@H](Cc2ccccc2)NC(=O)[C@@H](C(C)C)NC(=O)[C@@H]([C@H](C)CC)NC(=O)[C@H](NC(=O)[C@H](NC(=O)[C@H](CCCN)NC(=O)[C@H]2CCCN2C(=O)[C@H](NC(=O)[C@@H](NC(=O)[C@@H](NC(=O)[C@H](NC(=O)CCCCCCC)C(C)C)[C@@H](C)O)C(C)C)C(C)C)[C@H](C)CC)[C@H](C)OC(=O)[C@H](C(C)C)NC1=O", "GI50 [nM]": 578}
{"smiles.entry": "C/C=C1\\NC(=O)[C@H](Cc2ccccc2)NC(=O)[C@@H](C(C)C)NC(=O)[C@@H]([C@H](C)CC)NC(=O)[C@H](NC(=O)[C@H](NC(=O)[C@H](CCCN)NC(=O)[C@H]2CCCN2C(=O)[C@H](NC(=O)[C@@H](NC(=O)[C@@H](NC(=O)[C@H](NC(=O)CCCC(C)C)C(C)C)C(C)C)C(C)C)C(C)C)[C@H](C)CC)[C@H](C)OC(=O)[C@H](C(C)C)NC1=O", "GI50 [nM]": 175}

State the recorded GI50 for every item in the following list.
1. C/C=C1\NC(=O)[C@H](Cc2ccccc2)NC(=O)[C@@H](C(C)C)NC(=O)[C@@H]([C@H](C)CC)NC(=O)[C@H](NC(=O)[C@H](NC(=O)[C@H](CCCN)NC(=O)[C@H]2CCCN2C(=O)[C@H](NC(=O)[C@@H](NC(=O)[C@@H](NC(=O)[C@H](NC(=O)CCCCCC)C(C)C)[C@@H](C)O)C(C)C)C(C)C)[C@H](C)CC)[C@H](C)OC(=O)[C@H](C(C)C)NC1=O
2. C/C=C1\NC(=O)[C@H](Cc2ccccc2)NC(=O)[C@@H](C(C)C)NC(=O)[C@@H]([C@H](C)CC)NC(=O)[C@H](NC(=O)[C@H](NC(=O)[C@H](CCCN)NC(=O)[C@H]2CCCN2C(=O)[C@H](NC(=O)[C@@H](NC(=O)[C@@H](NC(=O)[C@H](NC(=O)CC(C)C)C(C)C)[C@@H](C)O)C(C)C)C(C)C)[C@H](C)CC)[C@H](C)OC(=O)[C@H](C(C)C)NC1=O
3. C/C=C1\NC(=O)[C@H](Cc2ccccc2)NC(=O)[C@@H](C(C)C)NC(=O)[C@@H]([C@H](C)CC)NC(=O)[C@H](NC(=O)[C@H](NC(=O)[C@H](CCCN)NC(=O)[C@H]2CCCN2C(=O)[C@H](NC(=O)[C@H](CCCN)NC(=O)[C@@H](NC(=O)[C@H](NC(=O)CCCC(C)C)C(C)C)[C@@H](C)O)C(C)C)[C@H](C)CC)[C@H](C)OC(=O)[C@H](C(C)C)NC1=O

1: 848; 2: 2070; 3: 1230

The reported numbers originate from ChEMBL document CHEMBL1156597.
